biological target: Delta-type opioid receptor (Homo sapiens); test: Displacement of […] from human DOR expressed in HEK293 cell membrane
Sequence (P41143 whole entry): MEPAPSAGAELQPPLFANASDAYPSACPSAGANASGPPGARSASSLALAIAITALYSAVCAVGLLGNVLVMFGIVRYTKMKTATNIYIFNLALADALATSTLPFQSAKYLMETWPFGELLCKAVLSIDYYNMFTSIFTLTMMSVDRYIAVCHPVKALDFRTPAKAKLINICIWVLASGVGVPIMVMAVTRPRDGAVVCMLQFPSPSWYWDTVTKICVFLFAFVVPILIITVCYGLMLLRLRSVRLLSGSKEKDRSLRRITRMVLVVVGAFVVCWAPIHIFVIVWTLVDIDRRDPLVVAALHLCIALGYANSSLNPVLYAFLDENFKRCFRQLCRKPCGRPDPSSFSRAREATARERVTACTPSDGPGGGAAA
For each record, write down the corresponding Ki.
Give bare numbers, in nM.

Answered cases to consult:
>>> reported_result("CN(C(=O)/C=C/c1ccoc1)[C@@H]1CC=C2[C@H]3Cc4ccc(O)c5c4[C@@]2(CCN3CC2CC2)[C@H]1O5")
26.3
>>> reported_result("CN(C(=O)/C=C/c1ccoc1)[C@@H]1CCC2[C@H]3Cc4ccc(O)c5c4[C@@]2(CCN3CC2CC2)[C@H]1O5 (stereo partly specified)")
9.76

// switching to the query compound
Consider CN(C(=O)/C=C/c1ccoc1)[C@@H]1CC[C@@]2(O)[C@H]3Cc4ccc(O)c5c4[C@@]2(CCN3CC2CC2)[C@H]1O5 . Its measured Ki is 36.5

* * *

target: Orexin/Hypocretin receptor type 1 (Homo sapiens); assay: Binding affinity to OX1R (unknown origin) by calcium assay
Sequence (O43613 whole entry): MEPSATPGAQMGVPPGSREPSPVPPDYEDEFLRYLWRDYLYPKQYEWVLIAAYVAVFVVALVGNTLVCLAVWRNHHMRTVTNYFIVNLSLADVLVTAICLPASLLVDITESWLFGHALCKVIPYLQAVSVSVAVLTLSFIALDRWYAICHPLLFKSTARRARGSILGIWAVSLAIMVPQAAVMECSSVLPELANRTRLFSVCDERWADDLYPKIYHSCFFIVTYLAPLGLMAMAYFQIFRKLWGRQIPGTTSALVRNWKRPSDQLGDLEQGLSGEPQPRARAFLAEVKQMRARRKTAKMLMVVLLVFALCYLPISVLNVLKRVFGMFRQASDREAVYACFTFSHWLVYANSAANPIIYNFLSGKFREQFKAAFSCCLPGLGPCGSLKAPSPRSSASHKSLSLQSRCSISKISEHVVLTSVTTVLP
For each of the compounds below, state its pKi.
One number for each entry, as −log10 of the molar value.

The cases that follow already have their pKi on record.
>>> reported_result("CN(C(=O)/C=C/c1ccoc1)[C@@H]1CC=C2[C@H]3Cc4ccc(O)c5c4[C@@]2(CCN3CC2CC2)[C@H]1O5")
7.52
>>> reported_result("CN(C(=O)/C=C/c1ccoc1)[C@@H]1CCC2[C@H]3Cc4ccc(O)c5c4[C@@]2(CCN3CC2CC2)[C@H]1O5 (some centres undefined)")
6.66
>>> reported_result("COc1ccc2c3c1O[C@H]1[C@H](N(C)C(=O)/C=C/c4ccoc4)CCC4[C@@H](C2)N(CC2CC2)CC[C@@]341 (some centres undefined)")
7.54

Please turn your attention to the following entry.
Form field pKi, entry COc1ccc2c3c1O[C@H]1[C@H](N(C)C(=O)/C=C/c4ccoc4)CC=C4[C@@H](C2)N(CC2CC2)CC[C@]431 : 7.72

* * *

Consider molecules characterized by their Ki with Mu-type opioid receptor (Homo sapiens, UniProt P35372).
Sequence (P35372 whole entry): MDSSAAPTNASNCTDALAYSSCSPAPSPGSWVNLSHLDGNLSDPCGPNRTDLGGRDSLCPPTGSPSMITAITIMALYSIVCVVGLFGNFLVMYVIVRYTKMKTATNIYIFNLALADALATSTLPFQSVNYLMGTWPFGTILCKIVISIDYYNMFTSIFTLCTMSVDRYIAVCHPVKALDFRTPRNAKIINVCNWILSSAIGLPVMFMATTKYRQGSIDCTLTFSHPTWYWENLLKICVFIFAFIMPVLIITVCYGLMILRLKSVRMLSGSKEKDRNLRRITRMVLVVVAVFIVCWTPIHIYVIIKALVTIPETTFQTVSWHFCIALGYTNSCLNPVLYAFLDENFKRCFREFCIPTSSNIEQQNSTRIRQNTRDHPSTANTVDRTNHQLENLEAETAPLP
Answers are plain numbers, in nM.

Use the examples below as a reference point.
>>> reported_result("CN(C(=O)/C=C/c1ccoc1)[C@@H]1CCC2[C@H]3Cc4ccc(O)c5c4[C@@]2(CCN3CC2CC2)[C@H]1O5 (stereo partly specified)")
0.158
>>> reported_result("CN(C(=O)/C=C/c1ccoc1)[C@@H]1CC[C@@]2(O)[C@H]3Cc4ccc(O)c5c4[C@@]2(CCN3CC2CC2)[C@H]1O5")
0.7

// switching to the query molecule
Ki recorded for this molecule, CN(C(=O)/C=C/c1ccoc1)[C@@H]1CC=C2[C@H]3Cc4ccc(O)c5c4[C@@]2(CCN3CC2CC2)[C@H]1O5 , is 3.57

* * *

Assay system Kappa-type opioid receptor (Homo sapiens, UniProt P41145); read-out recorded as Ki.
Numbers only, in nM.

>>> reported_result("CN(C(=O)/C=C/c1ccoc1)[C@@H]1CCC2[C@H]3Cc4ccc(O)c5c4[C@@]2(CCN3CC2CC2)[C@H]1O5 (some centres undefined)")
0.0272
>>> reported_result("CN(C(=O)/C=C/c1ccoc1)[C@@H]1CC=C2[C@H]3Cc4ccc(O)c5c4[C@@]2(CCN3CC2CC2)[C@H]1O5")
0.0356
>>> reported_result("CN(C(=O)/C=C/c1ccoc1)[C@@H]1CC=C2[C@H]3Cc4ccc(O)c5c4[C@@]2(CN3CC2CC2)[C@H]1O5")
1410

Now for the molecule whose Ki we want.
Reported Ki for CN(C(=O)/C=C/c1ccoc1)[C@@H]1CCC2[C@H]3Cc4ccc(O)c5c4[C@@]2(CN3CC2CC2)[C@H]1O5 (some centres undefined) was 283

* * *

molecular target: Delta-type opioid receptor (Homo sapiens); experiment: Displacement of […] from human DOR expressed in HEK293 cell membrane
pKi: −log10 of the molar value.
Provide the reported pKi of each item.

The following compounds have reported results that may help.
>>> reported_result("CN(C(=O)/C=C/c1ccoc1)[C@@H]1CC[C@@]2(O)[C@H]3Cc4ccc(O)c5c4[C@@]2(CN3CC2CC2)[C@H]1O5")
"< 5.30"
>>> reported_result("CN(C(=O)/C=C/c1ccoc1)[C@@H]1CC=C2[C@H]3Cc4ccc(O)c5c4[C@@]2(CN3CC2CC2)[C@H]1O5")
"< 5.00"

Next, consider the following compound.
The reported value for CN(C(=O)/C=C/c1ccoc1)[C@@H]1CCC2[C@H]3Cc4ccc(O)c5c4[C@@]2(CN3CC2CC2)[C@H]1O5 (stereo partly drawn) in terms of pKi is < 5.00

* * *

Target or system Mu-type opioid receptor (Homo sapiens, UniProt P35372): recorded Ki listed per item.

>>> reported_result("CN(C(=O)/C=C/c1ccoc1)[C@@H]1CC[C@@]2(O)[C@H]3Cc4ccc(O)c5c4[C@@]2(CN3CC2CC2)[C@H]1O5")
"> 5 µM"
>>> reported_result("CN(C(=O)/C=C/c1ccoc1)[C@@H]1CCC2[C@H]3Cc4ccc(O)c5c4[C@@]2(CN3CC2CC2)[C@H]1O5 (stereo partly drawn)")
"> 10 µM"

Turning now to a further record.
Let me check: CN(C(=O)/C=C/c1ccoc1)[C@@H]1CC=C2[C@H]3Cc4ccc(O)c5c4[C@@]2(CN3CC2CC2)[C@H]1O5 , system Mu-type opioid receptor (Homo sapiens, UniProt P35372), measured Ki is > 10 µM
